// composite z-score lookup, one value per entry
MEASURED ON: Streptavidin (Streptomyces avidinii) (UniProt P22629)
Sequence (P22629 whole entry, looked up): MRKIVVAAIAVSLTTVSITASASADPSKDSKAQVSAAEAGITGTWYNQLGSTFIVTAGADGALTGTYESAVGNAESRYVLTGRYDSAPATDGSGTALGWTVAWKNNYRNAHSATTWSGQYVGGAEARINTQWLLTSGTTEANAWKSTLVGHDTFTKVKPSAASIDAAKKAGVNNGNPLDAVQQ
MEASUREMENT PROTOCOL: streptavidin binders on small-molecule microarray, primary screen, artefact control for SMM compound annotation, biophysical, 635/667 nm fluorescence (AID 1147);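 note: signal reflects streptavidin binding to arrayed compounds as a control protein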
TEST CONTEXT: streptavidin binding, higher = more signal
Quick one: just the number, no unit, thanks!

// worked examples, composite z-score included
COMPOUND	MEASURED ON	composite z-score
CC(C)(C)N1C(=O)[C@H]2[C@H]3[C@H](O)[C@H](O)CC(=O)[C@@H]3CC[C@H]2C1=O	Streptavidin (Streptomyces avidinii) (UniProt P22629)	0.179
CO[C@@H]1COC(=O)CC=C[C@H](C)[C@H](OC)COC(=O)[C@H](C)NC(=O)CC=C[C@H]1C	Streptavidin (Streptomyces avidinii) (UniProt P22629)	-0.369

query: Retrieve composite z-score measured for COC(=O)[C@H]1O[C@@H](c2c(OC)c(OC)c(C)c(OC)c2OC)[C@H](C)[C@@H](O)[C@H]1C and print it.
result: 0.353

query: Retrieve composite z-score measured for O=C1[C@H]2[C@H]3[C@H](O)[C@H](O)CC(=NOC[C@@H](O)COCc4ccco4)[C@H]3CC[C@H]2C(=O)N1c1ccc(F)cc1F and print it.
result: -1.07

query: Retrieve composite z-score measured for CCOC(=O)[C@H](CC(C)C)NC(=O)CCC1CC(OC(=O)NCc2cccc3ccccc23)CC2(CCCC(COC(=O)NCCOc3ccccc3)O2)O1 (stereo partly drawn) and print it.
result: 0.628

query: Retrieve composite z-score measured for COC(=O)[C@@H]1CC[C@@H](C)[C@H](c2ccc(Br)cc2)N1 and print it.
result: -0.165

query: Retrieve composite z-score measured for CCN1C(=O)[C@H]2[C@H]3[C@H](O)[C@H](O)CC(=O)[C@H]3CC[C@H]2C1=O and print it.
result: -0.0154

query: Retrieve composite z-score measured for COc1ccc(O[C@H]2C=C[C@@H](c3ccccc3)O[C@@H]2COC(=O)CCC(C)=NOC(C)CN2CCCc3nc(C)c(C)cc32)cc1 (stereo partly drawn) and print it.
result: 0.629

----------
System: PRMT1 (protein arginine N-methyltransferase 1)
MEASUREMENT PROTOCOL: PRMT1 binders on small-molecule microarrays, primary screen, biochemical, small-molecule microarray, 635 nm fluorescence (AID 1088);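 note: binding of Prmt1 protein to compounds spotted on small-molecule microarray slides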
TEST CONTEXT: small-molecule microarray binding, higher = more signal
// composite z-score lookup, one value per entry
Quick one: just the number, no unit, thanks!

// worked examples, composite z-score included
COMPOUND	MEASUREMENT LABEL	MEASUREMENT
CCCNC(=O)OC[C@H]1O[C@H](c2ccccc2)C=C[C@@H]1Oc1ccc(OC)cc1	composite z-score	-0.0125
COC(=O)[C@H](C)NC(=O)CCC1CC(OC(=O)NCCc2ccc(F)cc2)CC2(CCCC(COC(=O)NCc3cccc(C(F)(F)F)c3)O2)O1 (some centres not stated)	composite z-score	0.292
Cn1c(=O)n2n(c1=O)[C@H]1[C@H](O)[C@@H]3O[C@@H]3C(=NOCc3ccccc3)[C@H]1CC2	composite z-score	0.241
COC(=O)[C@H](C)NC(=O)CCC1CC(OC(=O)NCc2ccc3c(c2)OCO3)CC2(CCCC(COC(=O)NCCc3ccccc3OC)O2)O1 (some centres not stated)	composite z-score	0.472
CCCNC(=O)OC[C@H]1O[C@H](CCON=C(C)C)C=C[C@@H]1Oc1ccc(OC)cc1	composite z-score	0.612
Cc1ccc(S(=O)(=O)OC[C@H]2CN3[C@H](c4ccc(Br)cc4)[C@@H](C)CC[C@H]3C(=O)O2)cc1	composite z-score	1.23

Continue with the compound presented below.
query: Retrieve composite z-score measured for CO[C@H]1COC(=O)[C@@H]2CCCN2C(=O)CC=C[C@@H](C)[C@H](OC)COC(=O)[C@@H](OCc2ccccc2)C=C[C@@H]1C and print it.
result: 1.3
